# credit: the supplement of paper PMC9170038

Tested on: MS2 coat protein
Test: apparent KD of MS2 coat protein; designed switch direction (-1 OFF switch, 1 ON switch): -1; higher = weaker reporter binding
Details: input ligand: FMN 200 uM
Hi, to clarify the labels: Met covers apparent KD of MS2 coat protein from 100 nM upward, Not met covers anything below 100 nM.

q: Can CAAAACCGAGGAUAUACUUCGGAGAUAAAGGUAAGUCAAAGACUUGAGGAUCACCCAAGUAGAAGGCGGACGGA [Laeded] (Eterna round: R97, puzzle: Exclusion 2) be said to have apparent KD of MS2 coat protein at or above 100 nM?
a: Not met

q: Answer whether apparent KD of MS2 coat protein of AUCGUGUUAGGAUAUACACGACGCUGGGUAGCGGGCGGAGGGUAGAAGGGACAUGAGGAUCACCCAUGUUCGGG [Somalaesar] (Eterna round: R97, puzzle: Exclusion 4) is greater than or equal to 100 nM.
a: Not met

q: Dear colleague, could you confirm whether AUUAUAAAUGUAGGAUAUCUGCACGAUUAGUGCAGAGAAGGACAUGAGGAUCACCCAUGUAGAUCAAUAAUAAUUAAUUUAAUU [ENG1/5-B1] (Eterna round: R96, puzzle: Exclusion NG 1) has apparent KD of MS2 coat protein at or above 100 nM?
a: Met

q: hey, is apparent KD of MS2 coat protein for this one >= 100 nM? GACCUAUAGGUAGGAUAUCAUUGCGAUUAGCUAUGAGAAGGGCCACAUGAGGAUCACCCAUGUCCUCCAAUUAACCAUAAGGUC [Fiskers ExNg1 - 6] (Eterna round: R96, puzzle: Exclusion NG 1)
a: Not met

q: Hello, I need to know if GGUGCGUAUGUGAGGAUAUGCUGGUCCUUGGAUCAGCAGAAGGCACAUGAGGAUCACCCAUGUGGUGUCGUGCC [salish99_Bmod_Ex4_019] (Eterna round: R96, puzzle: Brourd's mod of Exclusion 4) has measured apparent KD of MS2 coat protein not below 100 nM. Thanks!
a: Met

----------
Test system: MS2 coat protein
Experiment: apparent KD of MS2 coat protein; designed switch direction (-1 OFF switch, 1 ON switch): -1; higher = weaker reporter binding
Settings: Eterna round: R95; input ligand: FMN 200 uM
Kindly supply the reported apparent KD of MS2 coat protein values for the records listed here.
Answer with a number only, understood to be in nM.

q: What value of apparent KD of MS2 coat protein has been reported for the following sequence? ACUCGAGAAGGAUAUACAUGAGGAUCACCCAUGUUAACUCCCAAGGGCAUCUUAAAAGGUAGAAGGUCUUGAAA [Laonbeus] (puzzle: Exclusion 3)
a: 23.7

q: Fill blank: measured apparent KD of MS2 coat protein of the sequence UUUUAACAUGAGGAUCACCCAUGUGAGGAUAUGGUAUUUUUUUUUUUUUUUUUUUUUUCCAGAAGGCACAUUUU [My solution] (puzzle: Exclusion 1) is ____.
a: 38.4

q: What value of measured apparent KD of MS2 coat protein is listed for CGGUGCUGAGGAUAUACAUGAGGAUCACCCAUGUGUUCCUGCUAGCGUACUGGCAGAUGUAGAAGGCGGUACUG [JL-ex3-3.44 Brourd mod] (puzzle: Exclusion 3) ?
a: 84

----------
Tested on: MS2 coat protein
Test: apparent KD of MS2 coat protein, switch OFF state (with FMN for OFF switches, without FMN for ON switches); designed switch direction (-1 OFF switch, 1 ON switch): 1; higher = weaker reporter binding
Settings: FMN input: 0 or 200 uM; Eterna round: R93 (includes R88 designs)
Label Not fulfilled if apparent KD of MS2 coat protein falls below 500 nM; label Fulfilled in every other case.

q: Can AAUAUAUUAAGUGAGGAUAUCGAGGAAAAAACAUGAGGAUCACCCAUGUGGGAAACAUGGUAGGGUGAGAAGGCACUUAAUAUAU [Samwise Clockwise 24 - Jieux - Same State 2] be said to have apparent KD of MS2 coat protein at or above 500 nM?
a: Fulfilled

q: Hello, I need to know if AAGUCACAUGAGGAUCACCCAUGUCGUAAACGAUGAGGAUAUAGGAACGAAAGAAAAAAACUAGAAGGUAUAACAA [SameState1-03] has measured apparent KD of MS2 coat protein not below 500 nM. Thanks!
a: Not fulfilled

q: Is the recorded value of apparent KD of MS2 coat protein equal to or greater than 500 nM for this sequence? CGGAAGGAGAGAGAGGAUAUCCAAAGGAAAACAUGAGGAUCACCCAUGUAGAAGGUAGGAAAUUGGGAGAAGGCUCAACAGAGAG [salish99-ss2-130]
a: Not fulfilled

q: Has GAAAAACAUGAGGAUCACCCAUGUGAGAAUAUGGGAGGAUAUACGAGGACGAGAGUCAAGGUAGAAGGCCUAAAAG [Garnet 75] a recorded apparent KD of MS2 coat protein greater than or equal to 500 nM?
a: Fulfilled

q: I'd appreciate it if you could say whether AAAUAACAUGAGGAUCACCCAUGUUACAACAUUACAGGAUAUGUGGGUGAAAAUAGCAUGACAGAAGGGUACUGUA [SameState1 Malc#34] has apparent KD of MS2 coat protein at least equal to 500 nM.
a: Not fulfilled

q: Check this sequence for apparent KD of MS2 coat protein at or above 500 nM: AAAAGACAUGAGGAUCACCCAUGUCCUCGGACAUGAGGAUAUGUACAGACUUCGGUCUGUACAGAAGGCAUGAAAA [SS1 - 1064]
a: Not fulfilled
